Target: PcrV of P. aeruginosa strain PA103 (on TTSS-induced bacteria) (Pseudomonas aeruginosa strain PA103)
Test: cell-based or functional assay
reported_metric: Ratio (IC50 Fab 13.37/IC50 Nanobody), A549 cytotoxicity (fold)

binder | unit_annotation | value_measured
Nanobody 259 (1E11-40GS-5H01) (VHH) EVQLVESGGGLVQPGGSLRLSCAASGSTRSVNPMAWFRQAPGRQREWVATISRSGYATYADSVKGRFTISGDNAKSSVYLQMNSLKPEDTAVYYCVTGTYWGQGTLVTVSSGGGGSGGGGSGGGGSGGGGSGGGGSGGGGSGGGGSGGGGSEVQLVESGGGLVQPGGSLRLSCAASGSTLDYYAIGWFRQAPGKEREGVSCTSNSGSTYYGGSVKGRFTASRDNAKNTVYLQMNSLRPEDTAVYYCVATIGCATLGGTLDVQRYYYRGQGTLVTVSS | fold | 9
Nanobody 277 (5H01-40GS-11B09) (VHH) EVQLVESGGGLVQPGGSLRLSCAASGSTLDYYAIGWFRQAPGKEREGVSCTSNSGSTYYGGSVKGRFTASRDNAKNTVYLQMNSLRPEDTAVYYCVATIGCATLGGTLDVQRYYYRGQGTLVTVSSGGGGSGGGGSGGGGSGGGGSGGGGSGGGGSGGGGSGGGGSEVQLVESGGGLVQAGGSLRLSCAASRLTFNHYNMGWFRQAPGKERERVAEVTWSGDKIYYVDSVKGRFTISRDNTPNPVYLYLQMNSLKPEDTAVYYCATAPRGLPYANGYWGQGTLVTVSS | fold | 8
